The origin of these recorded values is patent US20010036955A1.

- Tested on: HUVEC proliferation
- assay_info: Proliferation assay (BrdU incorporation)
- Format: cell-based, human
- test_parameters: Homo sapiens, HUVEC, type I collagen-coated surface, VEGF, bFGF and PMA, read-out: inhibition of endothelial cell (HUVEC) proliferation, IC50
pIC50: −log10 of the molar value.

molecule: CN(CCOc1ccc(CC2SC(=O)NC2=O)cc1)c1ccccn1 (stereo not shown) [BRL49653]
pIC50: 4.80
